Test: Growth inhibition of human MCF7 cells after 48 hrs by WST1 assay
Assay type: functional, cell-based
Details: MCF7, 48 h
Readout name: pIC50
The scale used: pIC50 is minus the common logarithm of the concentration in molar units.

# input compound: COc1ccc(/C=C2\CCC[C@@]3(C2=O)[C@@H](c2ccc(OC)cc2)[C@@H]2CSCN2[C@@]32C(=O)Nc3ccccc32)cc1 ; wanted: its pIC50
4.61

# input compound: O=C1Nc2ccccc2[C@]12N1CSC[C@H]1[C@H](c1cccc(Br)c1)[C@]21CCC/C(=C\c2cccc(Br)c2)C1=O ; wanted: its pIC50
4.46

# input compound: O=C1Nc2ccccc2[C@]12N1CSC[C@H]1[C@H](c1cccc([N+](=O)[O-])c1)[C@]21CCC/C(=C\c2cccc([N+](=O)[O-])c2)C1=O ; wanted: its pIC50
4.59

# input compound: O=C1Nc2ccccc2[C@]12N1CSC[C@H]1[C@H](c1ccc(Cl)cc1)[C@]21CCC/C(=C\c2ccc(Cl)cc2)C1=O ; wanted: its pIC50
4.31

# input compound: O=C1Nc2ccccc2[C@]12N1CSC[C@H]1[C@H](c1ccc(C(F)(F)F)cc1)[C@]21CCC/C(=C\c2ccc(C(F)(F)F)cc2)C1=O ; wanted: its pIC50
4.31

Taken from ChEMBL document CHEMBL3877324.
